molecular target: NMDA receptor; assay: [3H] MK-801 binding test on rat brain membrane specimen; conditions: hydrochloride
Counter-ions that a name gives are not always drawn.
The entries below come with measured pKi values attached.
pKi is a log-scale quantity: -log10 of the concentration expressed in molar.

As a guide, the following entries are already answered.
{"Compound": "C[C@]12CCCN[C@@]1(C)c1ccccc1C2 (single isomer, unassigned) [Example 84-1, hydrochloride]", "pKi": 6.30}
{"Compound": "C[C@]12CCCN[C@@]1(C)c1ccccc1C2 (single isomer, unassigned) [Example 84-2, hydrochloride]", "pKi": 5.96}
{"Compound": "CC[C@]12CCCN[C@H]1c1ccccc1C2 (single isomer, unassigned) [Example 83-1, hydrochloride]", "pKi": 6.22}

Shifting focus to the compound that follows.
pKi recorded for this compound, CC[C@]12CCCN[C@H]1c1ccccc1C2 (single isomer, unassigned) [Example 83-2, hydrochloride] , is 5.57
